PROCEDURE SUMMARY: Aqueous solubility in PBS at pH 7.4
Assay type: physicochemical
CONDITION DETAILS: buffer
REPORTED METRIC: solubility (µM)
Note: unit µM is implicit; provide only the numeric part.

// below: answered molecules
1. OC[C@@H]1[C@@H](O)[C@H](O)[C@@H](O)CN1CCCCCCOc1cc(F)ccc1F | 292
2. COc1ccccc1OCCCCCCN1C[C@H](O)[C@@H](O)[C@H](O)[C@H]1CO | 293
3. OC[C@@H]1[C@@H](O)[C@H](O)[C@@H](O)CN1CCCCCCOc1cccc(F)c1 | 283

input: Which solubility is reported for this molecule? "OC[C@@H]1[C@@H](O)[C@H](O)[C@@H](O)CN1CCCCCCOC1CCCCCC1"
output: 295

input: For the molecule shown here, "Cc1cccc(OCCCCCCN2C[C@H](O)[C@@H](O)[C@H](O)[C@H]2CO)c1" , give the reported solubility.
output: 286
